- System: COLO 205 colon
- Method summary: NCI tumour cell line growth inhibition, 48 h; in the data active means GI50 below about 0.43 µM; inactive means the rest
Select the matching outcome among t = active, f = inactive

Here are 3 molecules together with their reported answers.
>>> group_label("CCCCCCCCCCCCCCCCCCOc1ccccc1COP(=O)(O)OOCC[N+](C)(C)C")
"f"
>>> group_label("CO/C(=C1/NC(=O)C(Cc2ccc(O)c(Br)c2)N(C)C(=O)C(C)NC(=O)CCC/C=C(\\C)CCC(C)OC1=O)c1ccccc1 (stereo not drawn)")
"t"
>>> group_label("COC(=O)[C@]12CC[C@@H](C)[C@H](C)[C@@H]1C1=CC[C@@H]3[C@@](C)(CC#N)C4=C(C[C@@]3(C)[C@]1(C)CC2)OC[C@]4(C)C=O")
"f"

Q: Recorded call for `CCOc1ccc2c(c1)C(=O)c1c-2n(CCCN=[N+]=[N-])c(=O)c2cc([N+](=O)[O-])ccc12` ?
A: f

Q: Would you kindly repeat that for CC(=O)N1N=C(c2ccc(C)cc2)CC1c1cn(-c2ccccc2)nc1-c1cccc(Nc2ccnc3cc(Cl)ccc23)c1 (stereo not drawn) ?
A: f

Q: Record: `O=C(Nc1cccc(-n2cc(-c3ccncc3)c(-c3ccc(Cl)c(O)c3)n2)c1)Nc1ccc(Cl)c(Cl)c1`
A: f

Q: // same read-out, input: `O=C1c2ccc3c4c(ccc(c24)C(=O)N1CCNCc1ccccc1)C(=O)N(CCNCc1ccccc1)C3=O`
A: f

Reference source: PubChem BioAssay (NCI)
